B1: JUNB (parent)
chain: FVKALDDLHKMNHVTPPNVSLGAT

Variants of: B1
test.name: protein stability index of a GFP-peptide fusion (GPS, HEK-293T) (PSI 1-6); higher = more stable;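 further: lentivirally expressed fusions sorted by FACS into six bins by GFP to DsRed ratio, PSI derived from sequencing read proportions per bin multiplied by bin number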
settings: c terminus: a fixed tail appended
variants and their reported protein stability index
observation.type: protein stability index

- changes: "A23N"
  result.value: 2.02
- changes: "V19N"
  result.value: 1.98
- changes: "N12E"
  result.value: 2.01
- changes: "S20N"
  result.value: 1.96
